test system: MDCK; test: Cytotoxicity against dog MDCK cells assessed as reduction in cell viability incubated for 24 hrs by MTT assay; type: cell-based; conditions: Canis lupus familiaris
parameter-measured: pEC50
Give only the number. pEC50 is defined as minus log10 of concentration in molar units.

> print(dat)
                         structure.notation  measured
1  COc1cc(/C=C/C(=O)OCCCN(C)C[C@H](C)COC(=O)c2cc(OC)c(OC)c(OC)c2)cc(OC)c1OC      4.00

Task item: Check MDCK data and give pEC50 for "COc1cc(/C=C/C(=O)OCCCCCN(C)C[C@@H](C)COC(=O)c2cc(OC)c(OC)c(OC)c2)cc(OC)c1OC" .
Reply: 4.00

Data credit: ChEMBL document CHEMBL4359914
